# TARGET_OR_SYSTEM: T1, HLA-A*0201 (human)
# T1 construct: also called HLA-A2.1; HLA A2.1
# PROTOCOL_SUMMARY: iTopia off-rate;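 further: Half-life of peptide complexes with plate-bound HLA-A2, peptides loaded 18 h at 21 C, washed, then held at 37 C over several time points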
Consider the cut-off 2. If the recorded t1/2 is strictly smaller, the label is satisfied; if not, the label is not satisfied.

These recorded examples may help you get a feel for the data.
QLAAELGKT [cdr2 29-37 QLAAELGKT] ... satisfied
QAQLSLERQ [cdr2 206-214 QAQLSLERQ] ... not satisfied
LKSSGQGRR [cdr2 136-144 LKSSGQGRR] ... not satisfied
RGISLLHEV [cdr2 341-349 RGISLLHEV] ... not satisfied
RQHFVYDHV [cdr2 168-176 RQHFVYDHV] ... not satisfied
LSLERQKRV [cdr2 209-217 LSLERQKRV] ... satisfied
NIDHLQSQV [cdr2 125-133 NIDHLQSQV] ... satisfied

Please examine the following record next.
hey, is t1/2 for CLQTNIDHL [cdr2 121-129 CLQTNIDHL] lower than 2 or not?
not satisfied
